The measured values listed here are drawn from patent US20140154255A1.

Molecular target: VEGF (R&D systems, Minneapolis, Minn.) (UniProt P15692-4 27-191, limits assumed)
Sequence (P15692 other isoform, or with tags, fused parts or gaps limits assumed): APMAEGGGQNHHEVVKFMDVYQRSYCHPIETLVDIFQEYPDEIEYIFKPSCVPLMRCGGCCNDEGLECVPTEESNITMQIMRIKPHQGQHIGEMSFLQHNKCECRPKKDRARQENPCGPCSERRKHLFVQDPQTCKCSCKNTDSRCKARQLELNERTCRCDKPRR
Experiment: BIAcore SPR
I'd appreciate it if you could supply kon values for the items below.
Numbers only, in M⁻¹ s⁻¹.

- binder: "96 (antibody, human IgG1, V domains shown) VH: EVQLVESGGGLVQPGGSLRLSCAASGYTFTFYGMNWVRQAPGKGLEWVGWINTYTGEPTYAADFKRRFTFSLDTSKSTAYLQMNSLRAEDTAVYYCAKYPPYYGGSHWYFDVWGQGTLVTVSS VL: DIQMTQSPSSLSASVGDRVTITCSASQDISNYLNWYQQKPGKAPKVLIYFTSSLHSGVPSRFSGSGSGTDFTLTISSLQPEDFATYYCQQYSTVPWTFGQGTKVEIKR"
  kon / M⁻¹ s⁻¹: 225000
- binder: "94 (antibody, human IgG1, V domains shown) VH: EVQLVESGGGLVQPGGSLRLSCAASGYTFTFYGMNWVRQAPGKGLEWVGWINTYTGEPTYAADFKRRFTFSLDTSKSTAYLQMNSLRAEDTAVYYCAKYPHYYGGSHWYFDVWGQGTLVTVSS VL: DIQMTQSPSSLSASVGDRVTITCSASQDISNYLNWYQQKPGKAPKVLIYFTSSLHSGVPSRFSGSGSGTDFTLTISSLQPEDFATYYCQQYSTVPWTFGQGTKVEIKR"
  kon / M⁻¹ s⁻¹: 258000

Turning now to a further record.
Request: Identify kon associated with the binder 91 (antibody, human IgG1, V domains shown) VH: EVQLVESGGGLVQPGGSLRLSCAASGYTFTFYGMNWVRQAPGKGLEWVGWINTYTGEPTYAADFKRRFTFSLDTSKSTAYLQMNSLRAEDTAVYYCAKYPHYYGSSHWYFDVWGQGTLVTVSS VL: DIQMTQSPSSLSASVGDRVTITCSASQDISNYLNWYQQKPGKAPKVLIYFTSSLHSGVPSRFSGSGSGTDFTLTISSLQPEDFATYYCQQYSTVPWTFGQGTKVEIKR
Result: 211000
